Molecular target: T1, recombinant human DLL4 (Cat# 1506-D4/CF, R&D Systems) (human, UniProt Q9NR61 27-529)
T1 construct: Bought protein; also called hDLL4; rHuman DLL4
Experiment: ELISA, DLL4 coated, Fab 20 nM
recorded_metric: ELISA absorbance at 450 nm (A450)
Numeric only. Scale: A450

Quick one: ELISA absorbance at 450 nm for Fab VH1-46_IGHD6-6*01_IGHJ1*01 S102A/S103P/S104F/H111F I51A/N52L/S54T/G56H & L6_IGKJ1*01 S28N/S30D/S31H S52L/A55S (Fab, V domains shown, Fab made in E. coli: VH on CH1 with His6 and Flag tags (Plasmid A), VL on kappa CL (Plasmid C); also called H: APFF ALTH & L: NDH LS) VH: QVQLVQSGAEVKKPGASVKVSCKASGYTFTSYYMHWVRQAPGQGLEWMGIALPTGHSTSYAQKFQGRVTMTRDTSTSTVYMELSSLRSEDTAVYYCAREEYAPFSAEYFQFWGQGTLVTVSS VL: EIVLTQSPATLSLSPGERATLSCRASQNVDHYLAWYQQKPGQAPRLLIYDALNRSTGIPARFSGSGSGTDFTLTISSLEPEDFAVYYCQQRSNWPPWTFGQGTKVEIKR ?
0.458

Consider next the binder Fab VH1-46_IGHD6-6*01_IGHJ1*01 S102A/S103P/S104F/H111F N52L/S54T/G56H & L6_IGKJ1*01 S28N/S30D/S31H S52L/A55G (Fab, V domains shown, Fab made in E. coli: VH on CH1 with His6 and Flag tags (Plasmid A), VL on kappa CL (Plasmid C); also called H: APFF LTH & L: NDH LG) VH: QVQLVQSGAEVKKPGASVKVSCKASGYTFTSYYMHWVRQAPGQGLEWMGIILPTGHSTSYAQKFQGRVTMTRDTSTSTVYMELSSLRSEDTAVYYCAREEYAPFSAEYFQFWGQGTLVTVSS VL: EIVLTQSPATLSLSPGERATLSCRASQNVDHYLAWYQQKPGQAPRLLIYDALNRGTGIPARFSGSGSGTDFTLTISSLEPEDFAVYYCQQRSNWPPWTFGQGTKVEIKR in the same way.
1.01

Param item: Fab VH1-46_IGHD6-6*01_IGHJ1*01 S102A/S103P/S104F/H111F N52L/S54T/G56H & L6_IGKJ1*01 S28N/S30D/S31H S52L/A55S (Fab, V domains shown, Fab made in E. coli: VH on CH1 with His6 and Flag tags (Plasmid A), VL on kappa CL (Plasmid C); also called H: APFF LTH & L: NDH LS) VH: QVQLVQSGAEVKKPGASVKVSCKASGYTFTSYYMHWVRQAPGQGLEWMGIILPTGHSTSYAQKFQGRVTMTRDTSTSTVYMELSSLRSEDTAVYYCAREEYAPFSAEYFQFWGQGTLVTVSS VL: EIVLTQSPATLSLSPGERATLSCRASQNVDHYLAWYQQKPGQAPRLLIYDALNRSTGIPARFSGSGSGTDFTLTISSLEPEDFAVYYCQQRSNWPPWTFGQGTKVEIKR
1.05
